target: JAK3 (Homo sapiens, UniProt P52333); construct: endogenous in cells; mixed lysate 1:2; test: Kinobeads assay with immunodetection, JAK3; conditions: Kinobeads assay, mixed Molt4/Ramos lysate; read-out: Inhibition values (IC50) JAK3
Sequence (P52333 whole entry): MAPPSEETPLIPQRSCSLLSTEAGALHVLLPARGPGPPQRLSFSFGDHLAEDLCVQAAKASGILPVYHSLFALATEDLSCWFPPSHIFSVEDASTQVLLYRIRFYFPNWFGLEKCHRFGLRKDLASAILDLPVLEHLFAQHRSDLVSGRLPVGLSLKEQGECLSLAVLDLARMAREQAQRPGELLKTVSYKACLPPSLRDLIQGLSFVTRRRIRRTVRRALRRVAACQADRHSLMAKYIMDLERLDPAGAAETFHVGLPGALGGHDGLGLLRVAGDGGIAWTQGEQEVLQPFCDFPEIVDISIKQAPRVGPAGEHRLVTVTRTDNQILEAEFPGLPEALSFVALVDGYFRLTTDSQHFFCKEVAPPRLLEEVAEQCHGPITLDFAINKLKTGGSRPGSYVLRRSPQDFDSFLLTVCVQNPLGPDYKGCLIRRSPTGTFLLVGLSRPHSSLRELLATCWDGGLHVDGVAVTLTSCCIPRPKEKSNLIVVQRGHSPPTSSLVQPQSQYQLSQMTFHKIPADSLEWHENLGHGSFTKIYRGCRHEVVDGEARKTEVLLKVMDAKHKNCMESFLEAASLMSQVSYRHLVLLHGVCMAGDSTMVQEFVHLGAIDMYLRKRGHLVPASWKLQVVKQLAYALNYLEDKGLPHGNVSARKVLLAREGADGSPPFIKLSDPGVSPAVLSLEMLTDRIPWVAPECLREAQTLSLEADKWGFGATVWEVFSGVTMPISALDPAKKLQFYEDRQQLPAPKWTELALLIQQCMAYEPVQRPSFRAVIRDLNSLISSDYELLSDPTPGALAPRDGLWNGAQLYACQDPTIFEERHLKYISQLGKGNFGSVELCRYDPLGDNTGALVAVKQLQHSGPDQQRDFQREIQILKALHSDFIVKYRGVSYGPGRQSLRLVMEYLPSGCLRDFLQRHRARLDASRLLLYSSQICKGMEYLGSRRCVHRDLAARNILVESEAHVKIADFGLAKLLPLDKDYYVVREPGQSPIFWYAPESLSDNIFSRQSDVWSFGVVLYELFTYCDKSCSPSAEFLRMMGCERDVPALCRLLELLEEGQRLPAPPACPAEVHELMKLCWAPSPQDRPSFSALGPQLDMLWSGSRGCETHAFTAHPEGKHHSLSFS
pIC50: −log10 of the molar value. Counter-ions that a name gives are not always drawn.
Overview of reported pIC50 across a group of compounds:

Observe how each entry below is paired with its result.
# compound, pIC50
records = [
    ("C=CC(=O)N1CCCC[C@H]1CNc1nc(Nc2cnn(CCO)c2)ncc1Cl", "5.00 to 6.00"),
    ("C=CC(=O)N1CCC[C@H]1CNc1nc(Nc2cnn(CCO)c2)ncc1Cl", "5.00 to 6.00"),
    ("C=CS(=O)(=O)N1CCC[C@H]1CNc1nc(Nc2cnn(CCO)c2)ncc1Cl", "> 7.00"),
    ("C=CC(=O)N1CCC[C@@H]1CNc1nc(Nc2cnn(CCO)c2)ncc1Cl", "6.00 to 7.00"),
    ("CS(=O)(=O)N1CCCC[C@H]1CNc1nc(Nc2cnn(CCO)c2)ncc1Cl", "> 7.00"),
]

With those in mind, consider the next compound.
Inquiry: What does the data say about its pIC50? Entry: Cc1cnc(Nc2cnn(C)c2)nc1NC[C@@H]1CCCN1 [Example 73, Hydrochloride]
Reply text: 5.00 to 6.00

###

Overview of reported IC50 across a group of compounds:
target: JAK1 (Homo sapiens); construct: endogenous in cells; mixed lysate 1:2; experiment: Kinobeads assay with immunodetection, JAK1; conditions: Kinobeads assay, mixed Molt4/Ramos lysate; read-out: Inhibition values (IC50) JAK1
Sequence (P23458 whole entry): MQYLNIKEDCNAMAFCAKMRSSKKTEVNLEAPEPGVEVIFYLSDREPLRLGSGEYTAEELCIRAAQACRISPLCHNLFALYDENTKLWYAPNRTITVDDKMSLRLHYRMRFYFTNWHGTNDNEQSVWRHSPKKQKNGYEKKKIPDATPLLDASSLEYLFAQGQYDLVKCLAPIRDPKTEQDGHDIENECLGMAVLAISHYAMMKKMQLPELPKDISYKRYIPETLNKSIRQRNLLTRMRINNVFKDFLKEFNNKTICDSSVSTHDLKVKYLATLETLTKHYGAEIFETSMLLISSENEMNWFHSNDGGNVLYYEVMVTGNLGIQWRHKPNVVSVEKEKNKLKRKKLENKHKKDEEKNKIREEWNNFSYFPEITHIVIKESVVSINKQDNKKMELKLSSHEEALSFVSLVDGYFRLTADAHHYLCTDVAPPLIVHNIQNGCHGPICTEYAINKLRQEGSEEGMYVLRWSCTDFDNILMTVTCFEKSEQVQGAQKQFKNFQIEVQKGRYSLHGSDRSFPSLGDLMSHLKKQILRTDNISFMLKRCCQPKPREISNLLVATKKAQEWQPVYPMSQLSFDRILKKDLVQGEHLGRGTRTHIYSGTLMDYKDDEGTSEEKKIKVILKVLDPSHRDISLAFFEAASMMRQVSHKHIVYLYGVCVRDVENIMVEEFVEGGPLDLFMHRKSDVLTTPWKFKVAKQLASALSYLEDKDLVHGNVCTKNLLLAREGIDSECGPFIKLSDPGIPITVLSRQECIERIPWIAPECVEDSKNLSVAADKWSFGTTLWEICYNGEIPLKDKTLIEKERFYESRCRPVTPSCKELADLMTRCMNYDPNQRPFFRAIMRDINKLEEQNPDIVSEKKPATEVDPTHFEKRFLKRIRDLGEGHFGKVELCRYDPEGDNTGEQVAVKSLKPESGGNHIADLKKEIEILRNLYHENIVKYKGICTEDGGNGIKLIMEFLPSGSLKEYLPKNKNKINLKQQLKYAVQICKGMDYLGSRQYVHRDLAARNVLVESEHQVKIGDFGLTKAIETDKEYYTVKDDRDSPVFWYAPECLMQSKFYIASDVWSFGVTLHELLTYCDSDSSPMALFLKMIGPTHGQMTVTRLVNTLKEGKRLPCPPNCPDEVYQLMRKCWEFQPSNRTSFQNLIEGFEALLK

# compound, experimental-system, reported-metric, test-value
records = [
    ("Cc1cnc(Nc2cnn(CC(F)F)c2)nc1NC[C@H]1CCCN1CCC#N [Example 117]", "JAK1 (Homo sapiens)", "IC50", "< 100 nM"),
    ("CS(=O)(=O)N1CC(CNc2nc(Nc3cnn(CCO)c3)ncc2Cl)C1 [Example 19]", "JAK1 (Homo sapiens)", "IC50", "100 to 1000 nM"),
    ("Cc1cnc(Nc2cnn(C)c2)nc1NC[C@@H]1CCCN1CCS(C)(=O)=O [Example 105]", "JAK1 (Homo sapiens)", "IC50", "< 100 nM"),
    ("Cn1cc(Nc2ncc(Cl)c(NC[C@H]3CCN(CCS(C)(=O)=O)C3)n2)cn1 [Example 55]", "JAK1 (Homo sapiens)", "IC50", "< 100 nM"),
    ("Cn1cc(Nc2ncc(Cl)c(NC[C@H]3CCCN3C(=O)CC#N)n2)cn1 [Example 52]", "JAK1 (Homo sapiens)", "IC50", "< 100 nM"),
]

Inquiry: What does the data say about its IC50? Entry: CS(=O)(=O)N1CCC[C@H]1CNc1nc(Nc2cnn(CCO)c2)ncc1Cl [Example 13]
Reply text: < 100 nM

Inquiry: Then what about the compound Cc1cnc(Nc2cnn(C)c2)nc1NC[C@@H]1CCCN1S(C)(=O)=O [Example 77] ?
Reply text: < 100 nM

Inquiry: Then what about the compound Cn1cc(Nc2ncc(Cl)c(NC[C@H]3CCCN3C(=O)CCC#N)n2)cn1 [Example 86] ?
Reply text: < 100 nM

Inquiry: Then what about the compound CNC(=O)Cn1cc(Nc2ncc(Cl)c(NC[C@H]3CCCN3)n2)cn1 [Example 63] ?
Reply text: 1000 to 10000 nM

Inquiry: Then what about the compound C=CC(=O)N1CC[C@@H](CNc2nc(Nc3cnn(C)c3)ncc2Cl)C1 [Example 28] ?
Reply text: 1000 to 10000 nM

Inquiry: Then what about the compound Cn1cc(Nc2nccc(NC[C@H]3CCCN3C(=O)CC#N)n2)cn1 [Example 95] ?
Reply text: 100 to 1000 nM

Inquiry: Then what about the compound C=CS(=O)(=O)N1CC[C@@H](CNc2nc(Nc3cnn(C)c3)ncc2Cl)C1 [Example 31] ?
Reply text: 100 to 1000 nM

Inquiry: Then what about the compound Cn1cc(Nc2ncc(Cl)c(NC[C@@H]3C[C@H](F)CN3C(=O)CCC#N)n2)cn1 [Example 110] ?
Reply text: < 100 nM

Inquiry: Then what about the compound CCNC(=O)N1CCC[C@@H]1CNc1nc(Nc2cnn(C)c2)ncc1Cl [Example 88] ?
Reply text: 100 to 1000 nM

Inquiry: Then what about the compound Cn1cc(Nc2ncc(Cl)c(NC[C@H]3CCCN3CCC#N)n2)cn1 [Example 49] ?
Reply text: < 100 nM

Inquiry: Then what about the compound Cc1cnc(Nc2cnn(C)c2)nc1NC[C@H]1CCCN1S(C)(=O)=O [Example 76] ?
Reply text: < 100 nM
